- Test system: HOP-92
- assay-procedure: NCI tumour cell line growth inhibition, 48 h
Activity calls are given as the source filed them. No stated cut-off is given here; in the data, active = GI50 up to about 1.1 µM and inactive = higher.
Pick from YES (active), NO (inactive) when you respond.

What did the test return for `c1cc2nnsc2s1` ? NO

What did the test return for `CN1C(=O)[C@](C)(Cc2ccc(F)cc2)N(C(=O)OC(C)(C)C)[C@@H]1C(C)(C)C` ? NO

What did the test return for `CN(C)S(=O)(=O)Nc1ccccn1` ? NO

What did the test return for Cc1ccc(S(=O)(=O)OCC23CCC(C4CC42)C2CC23)cc1 (configuration not stated) ? NO

What did the test return for `CCOC(=O)/C=C/C1=C(Br)[C@@]2(C)CC[C@@H]3c4ccc(O)cc4CC[C@H]3[C@@H]2C1` ? NO

What did the test return for `Oc1ccc(C(c2ccc(O)cc2)c2ccc(O)cc2)cc1` ? NO

What did the test return for `C=C(C)[C@@H]1CCc2c(c(C)cc(O)c(=O)c2O)C1` ? YES

What did the test return for `COc1cc(Nc2nc3cc(C(F)(F)F)ccc3nc2-c2ccccc2)cc(OC)c1OC` ? NO

What did the test return for `CCCCCCCCCCCCCCCCOP(=O)(O)Oc1ccc(/C=C\c2ccc(OP(=O)(O)OCCCCCCCCCCCCCCCC)cc2)cc1` ? NO

What did the test return for CN1C(c2ccccc2)CC(=O)C(N)C1c1ccccc1 (configuration not stated) ? NO

What did the test return for `O=C(/C=C/c1ccc(O)c(O)c1)O[C@H]1CCCC[C@@H]1OC(=O)/C=C/c1ccc(O)c(O)c1` ? NO

What did the test return for `CCOC(=O)c1c[nH]c2c(Sc3ccccc3)nccc2c1=O` ? NO

What did the test return for `c1nnc(NCNc2nncs2)s1` ? NO

What did the test return for `CN(C)c1ccc(C=C2N=C(c3ccccc3)N(c3cc(C(=O)c4ccccc4)ccc3N3C(=O)/C(=C/c4ccc(N(C)C)cc4)N=C3c3ccccc3)C2=O)cc1` ? NO

What did the test return for COC(=O)C(=O)C(C(=O)C(=O)Nc1ccc([N+](=O)[O-])cc1C#N)c1nc2ccc([N+](=O)[O-])cc2nc1O (configuration not stated) ? NO

What did the test return for `COP(=O)(OC)/C(=C\c1cn(C(c2ccccc2)(c2ccccc2)c2ccccc2)cn1)NC(C)=O` ? NO

What did the test return for `Cc1ccc2ccc(-c3ccccc3)c3c2c1C(=O)c1ccccc1C3=O` ? NO

What did the test return for COC(=O)C1=CC2CCCC1(O)C(C(C)=O)C2 (configuration not stated) ? NO

What did the test return for `O=C(O)c1cccc(/N=N/c2c(S(=O)(=O)O)ccc3c2C(=O)c2ccccc2C3=O)c1O` ? NO

What did the test return for `O=C(Nc1nc(C23CC4CC(CC(C4)C2)C3)cs1)c1cc2cc(Cl)ccc2oc1=O` ? NO

What did the test return for COc1ccc(/C(=C/n2ccnc2)C(O)c2ccc(OC)c(OC)c2)cc1OC (configuration not stated) ? NO

What did the test return for `CCN(CC)CCNc1ccc2nnn3c4ccc([N+](=O)[O-])cc4c(=O)c1c23` ? NO

What did the test return for COc1ccc(C2c3cc4c(cc3C(O)C3CCC(=O)N23)OCO4)cc1 (configuration not stated) ? NO

What did the test return for `CN(C)CN(C)c1nc(N(C)C)nc(N(C)C)n1` ? NO

What did the test return for `CC12C/C(=C\c3ccccc3)C(=O)C3C1CCCC32` ? NO

What did the test return for `Cc1nc2sc(CCl)nn2c(=O)c1Cl` ? NO

What did the test return for `O=c1/c(=C/c2c(O)ccc3ccccc23)sc2nc3ccccc3n12` ? NO
